molecular target: T1, HSP70 (human HSP70; the antigen of the binning, humanization and variant binding assays) (human, UniProt P0DMV8 1-641, limits assumed); experiment: BLI, anti-human Fc capture, antigen 100 nM
T1 construct: also called hu HSP70
T1 sequence (P0DMV8 whole entry, change not shown): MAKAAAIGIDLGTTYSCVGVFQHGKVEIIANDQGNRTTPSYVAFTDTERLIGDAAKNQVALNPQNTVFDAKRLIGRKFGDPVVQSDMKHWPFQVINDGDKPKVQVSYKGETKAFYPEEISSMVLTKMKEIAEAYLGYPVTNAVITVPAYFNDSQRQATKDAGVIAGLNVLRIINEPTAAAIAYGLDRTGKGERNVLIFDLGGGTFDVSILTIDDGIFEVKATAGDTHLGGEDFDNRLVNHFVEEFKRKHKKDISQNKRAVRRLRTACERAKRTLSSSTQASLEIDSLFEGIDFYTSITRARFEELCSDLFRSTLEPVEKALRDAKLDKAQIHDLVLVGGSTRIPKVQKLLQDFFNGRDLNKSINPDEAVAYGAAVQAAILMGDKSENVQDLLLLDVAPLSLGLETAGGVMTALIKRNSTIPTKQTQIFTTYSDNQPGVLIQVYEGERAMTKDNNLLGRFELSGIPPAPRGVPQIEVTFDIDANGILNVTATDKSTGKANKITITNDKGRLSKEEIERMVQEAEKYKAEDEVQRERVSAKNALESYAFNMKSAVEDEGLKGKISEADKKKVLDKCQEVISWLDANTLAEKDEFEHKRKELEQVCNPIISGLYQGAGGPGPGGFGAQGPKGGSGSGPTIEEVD
Items are presented alongside their recorded % Diss.
READOUT_TYPE: % Diss (%)

binder="h77A-1.47 (antibody, V domains shown, captured by anti-human Fc) VH: QIQLVQSGTEVKKPGASVKVSCKASGYTFTNYGMNWVRQAPGQGLEWMGWINTYTGEPTYADDFKGRFTFTTDTSTSTAYMELRSLRSDDTAVYFCARYDHLMDYWGQGTLVTVSS VL: EIVLTQSPDSLAVSLGERATINCKSSQSLLNSGTRKNYLAWYQQKAGQSPKLLIYWTSTRESGVPDRFSGSGSGTDFTLTIDSLQTEDVAVYYCKQSYTLYTFGGGTKVEIK" measured_value=13.6
binder="h77A-1.36 (antibody, V domains shown, captured by anti-human Fc) VH: QIQLVQSGAEVKKPGASVKVSCKASGYTFTNYGMNWVRQAPGQGLEWMGWINTYTGEPTYADDFKGRFTFTTDTSTTTAYMELRSLRSDDTAVYFCARYDHHMDYWGQGTLVTVSS VL: EIVLTQSPDSLAVSLGERATINCKSSQSLFNSGTRKNYLAWYQQKAGQSPKLLIYWTSTRESGVPDRFSGSGSGTDFTLTIDSLQAEDVAVYYCKQSYTLYTFGGGTKVEIK" measured_value=6.96
binder="h77A-1.40 (antibody, V domains shown, captured by anti-human Fc) VH: QIQLVQSGAEVKKPGASVKVSCKASGYTFTNYGMNWVRQAPGQGLEWMGWINTYTGEPTYADDFKGRFTFTTDTSTSTAYMELRSLRSDDTAVYFCARYDHYMDYWGQGTLVTVSS VL: EIVLTQSPDSLTVSLGERATINCKSSQSLLNSGTRKNYLAWYQQKAGQSPKLLIYWTSTRESGVPDRFSGSGSGTDFTLTIDSLQAEDVAVYYCKQSYNLYTFGGGTKVEIK" measured_value=11.9
binder="h77A-1.94 (antibody, V domains shown, captured by anti-human Fc) VH: QIQLVQSGAEVKKPGASVKVSCKASGYTFTNYGMNWVRQAPGQGLEWMGWINTYTGEPTYTDDFKGRFTFTTDTSTSTAYMELRSLRSDDTAVYFCARYDHAMDYWGQGTLVTVSS VL: EIVLTQSPDSLAVSLGERATINCKSSQSLFNSGTRKNYLAWYQQKAGQSPKLIIYWTSTRESGVPDRFSASGSGTDFTLSIDRLQAEDVAVYYCKQSYTLYTFGGGTKVEIK" measured_value=5.24
binder="h77A-1.57 (antibody, V domains shown, captured by anti-human Fc) VH: QIQLVQSGAEVKKPGASVKVSCKASGYTFTNYGMNWVRQAPGQGLEWMGWINTYTGEATYADDFKGRFTFTTDTSTSTAYMELRSLRSDDTAVYFCARYDHVMDYWGQGTLVTVSS VL: EIVLTQSPDSLAVSLGERATINCKSSQSLVNSGTRKNYLAWYQQKAGQSPKLLIYWTSTRESGVPDRFSGSGSGTDFTLTIDSLQTEDVAVYYCKQSYTLYTFGGGTKVEIK" measured_value=25.9
binder="h77A-1.71 (antibody, V domains shown, captured by anti-human Fc) VH: QIQLVQSGSEVKKPGASVKVSCKASGYTFTNYGMNWVRQAPGQGLEWMGWINTYTGEPTYADDFKGRFTFTTDTSTSTAYMDLRSLRSDDTAVYFCARYDHAMDYWGQGTLVTVSS VL: EIVLTQSPDSLSVSLGERATIKCKSSQSLLNSGTRKNYLAWYQQKAGQSPKLLIYWTSTRESGVPDRFSGSGSGTDFTLTIDSLQTEDVAVYYCKQSYTLYTFGGGTKVEIK" measured_value=7.93
binder="h77A-1.22 (antibody, V domains shown, captured by anti-human Fc) VH: QIQLVQSGAEVKKPGASVKVSCKASGYTFTNYGMNWVRQAPGQGLEWMGWINTYTGEPTYSDDFKGRFTFTTDTSTSTAYMELRSLRSDDTAVYFCARYDHAMDYWGQGTLVTVSS VL: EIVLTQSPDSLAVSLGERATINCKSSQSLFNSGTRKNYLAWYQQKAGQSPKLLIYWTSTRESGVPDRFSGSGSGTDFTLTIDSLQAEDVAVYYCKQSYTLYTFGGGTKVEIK" measured_value=6.5
binder="h77A-1.23 (antibody, V domains shown, captured by anti-human Fc) VH: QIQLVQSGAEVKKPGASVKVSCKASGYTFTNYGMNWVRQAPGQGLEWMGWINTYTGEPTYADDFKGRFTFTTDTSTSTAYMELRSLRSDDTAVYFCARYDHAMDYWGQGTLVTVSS VL: EIVLTQSPDSLAVSLGERATINCKSSQSLLNSGTRKNYLSWYQQKAGQSPKLLIYWTSTRESGVPDRFSGSGSGTDFTLTIDSLQAEDVAVYYCKQSYSLYTFGGGTKVEIK" measured_value=24
binder="h77A-1.54 (antibody, V domains shown, captured by anti-human Fc) VH: QIQLVQSGAEVKKPGASVKVSCKASGYTFTKYGMNWVRQAPGQGLEWMGWINTYTGEPKYGDDFKGRFTFTTDTSTSTAYMELRSLRSDDTAVYFCARYDHRMDYWGQGTLVTVSS VL: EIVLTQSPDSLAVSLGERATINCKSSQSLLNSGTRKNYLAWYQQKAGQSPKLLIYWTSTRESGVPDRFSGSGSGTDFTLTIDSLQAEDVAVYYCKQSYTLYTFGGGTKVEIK" measured_value=-41.2
binder="h77A-1.25 (antibody, V domains shown, captured by anti-human Fc) VH: QIQLVQSGAEVKKPGASVKVSCKASGYTFTNYGMNWVRQAPGQGLEWMGWINTYTGEPTYADDFKGRFTFTTDTSTSTAYMELRSLRSDDTAVYFCARYDHFMDYWGQGTLVTVSS VL: EIVLTQSPDSLAVSLGERATINCKSSQSLLNSGTRKNYLAWYQQKAGQSPKLLIYWTSTRESGVPDRFSGSGSGTDFTLTIDSLQAEDVAIYYCKQSYTLYTFGGGTKVEIK" measured_value=23.2
